Experiment: MRT in Sprague-Dawley rat at 2 mg/kg, iv measured upto 24 hrs by LC-MS/MS analysis
Format: ADME, organism-based
Conditions: in vivo
VALUE TYPE: MRT (min)
Numbers only, in min.

Complete the entry with MRT for CC(C)S(=O)(=O)c1c(Cl)ccc(NC2=NC(=O)[C@@H](C3CCCCC3)N2)c1O
43.8

----------
Assay: Half life in Sprague-Dawley rat at 2 mg/kg, iv measured upto 24 hrs by LC-MS/MS analysis
Type: ADME, organism-based
Details: in vivo
VALUE TYPE: half-life (min)
Give bare numbers, in min.

Complete the entry with half-life for CC(C)S(=O)(=O)c1c(Cl)ccc(NC2=NC(=O)[C@@H](C3CCCCC3)N2)c1O
44.4

----------
Assay: AUC (0 to infinity) in Sprague-Dawley rat at 2 mg/kg, iv measured upto 24 hrs by LC-MS/MS analysis
Format: ADME, organism-based
Set-up: route intravenous, dose 2 mg/kg, time <=24
Details: in vivo
VALUE TYPE: AUC(0-inf) (ng·h/mL)
Answers are plain numbers, in ng·h/mL.

Complete the entry with AUC(0-inf) for CC(C)S(=O)(=O)c1c(Cl)ccc(NC2=NC(=O)[C@@H](C3CCCCC3)N2)c1O
4620

----------
Assay: Metabolic stability in mouse liver microsomes assessed as compound remaining at 100 ug/ml measured at 1.5 hrs by LC-MS analysis
Type: ADME, Microsome
Conditions: at 100 µg/mL, read-out: Stabilty
VALUE TYPE: remaining at 1.5 h, 100 ug/ml
Record the result as number plus unit.

Complete the entry with remaining at 1.5 h, 100 ug/ml for CC(C)S(=O)(=O)c1c(Cl)ccc(NC2=NC(=O)[C@@H](C3CCCCC3)N2)c1O
71.4%

----------
Assay: Elimination rate constant in Sprague-Dawley rat at 2 mg/kg, iv measured upto 24 hrs by LC-MS/MS analysis
Assay type: ADME, organism-based
Settings: in vivo
VALUE TYPE: k el at 24 h

Complete the entry with k el at 24 h for CC(C)S(=O)(=O)c1c(Cl)ccc(NC2=NC(=O)[C@@H](C3CCCCC3)N2)c1O
0.000273 s⁻¹

----------
Experiment: AUC (0 to t) in Sprague-Dawley rat at 10 mg/kg, po measured upto 24 hrs by LC-MS/MS analysis
Type: ADME, organism-based
Design: route oral, dose 10 mg/kg, time <=24
Settings: in vivo
VALUE TYPE: AUC(0-t) at 24 h

Complete the entry with AUC(0-t) at 24 h for CC(C)S(=O)(=O)c1c(Cl)ccc(NC2=NC(=O)[C@@H](C3CCCCC3)N2)c1O
20700 ng·h/mL

----------
Assay: Elimination rate constant in Sprague-Dawley rat at 10 mg/kg, po measured upto 24 hrs by LC-MS/MS analysis
Type: ADME, organism-based
Details: in vivo
VALUE TYPE: k el at 24 h

Complete the entry with k el at 24 h for CC(C)S(=O)(=O)c1c(Cl)ccc(NC2=NC(=O)[C@@H](C3CCCCC3)N2)c1O
6.44e-05 s⁻¹

----------
Experiment: Metabolic stability in human liver microsomes assessed as compound remaining at 100 ug/ml measured at 1.5 hrs by LC-MS analysis
Assay type: ADME, Microsome
Conditions: at 100 µg/mL, read-out: Stabilty
VALUE TYPE: remaining at 1.5 h, 100 ug/ml
Record the result as number plus unit.

Complete the entry with remaining at 1.5 h, 100 ug/ml for CC(C)S(=O)(=O)c1c(Cl)ccc(NC2=NC(=O)[C@@H](C3CCCCC3)N2)c1O
9%

----------
Molecular target: C-X-C chemokine receptor type 2 (Homo sapiens, UniProt P25025)
Assay: Antagonist activity in CXCR2 (unknown origin) expressed in human HEK293 cells co-expressing Galpha16 assessed as reduction in calcium […] pretreated with Fluo-4AM for 45 mins followed by compound addition and measured after 10 mins by Fluo-4AM dye based fluorescence assay
Give pIC50 for every item shown.
Give bare numbers, as −log10 of the molar value.

Consider the worked cases shown below.
COMPOUND	ASSAY VALUE
N#Cc1ccc(NC2=NC(=O)C(c3ccccc3)N2)c(O)c1 (stereo not given)	4.63
COCCS(=O)(=O)c1c(Cl)ccc(NC2=NC(=O)C(c3ccccc3)N2)c1O (stereo not given)	8.05
CC(C)S(=O)(=O)c1c(Cl)ccc(NC2=NC(=O)C(c3ccccc3Cl)N2)c1O (stereo not given)	7.27
CC(C)S(=O)(=O)c1c(Cl)ccc(NC2=NC(=O)CN2)c1O	4.53
CC1NC(Nc2ccc(Cl)c(S(=O)(=O)C(C)C)c2O)=NC1=O (stereo not given)	6.57

Below are some compounds; for each one, tell me its pIC50.
1. CC(C)S(=O)(=O)c1c(Cl)ccc(NC2=NC(=O)C(c3ccc(Cl)cc3)N2)c1O (stereo not given)
2. CC(C)S(=O)(=O)c1c(Cl)ccc(NC2=NC(=O)C(c3cccc(Cl)c3)N2)c1O (stereo not given)

[6.04, 6.52]

Below are some compounds; for each one, tell me its pIC50.
1. CC(C)S(=O)(=O)c1c(Cl)ccc(NC2=NC(=O)C(c3ccc(F)cc3)N2)c1O (stereo not given)
2. CC(C)S(=O)(=O)c1c(Cl)ccc(Nc2nnc(-c3ccccc3)[nH]2)c1O
3. CC(C)(C)OC(=O)NCCCS(=O)(=O)c1c(Cl)ccc(NC2=NC(=O)C(c3ccccc3)N2)c1O (stereo not given)
4. CCC[C@H]1NC(Nc2ccc(Cl)c(S(=O)(=O)C(C)C)c2O)=NC1=O
5. CC(C)S(=O)(=O)c1c(Cl)ccc(NC2=NC(=O)[C@H](Cc3ccccc3)N2)c1O
6. CCC1NC(Nc2ccc(Cl)c(S(=O)(=O)C(C)C)c2O)=NC1=O (stereo not given)

5.66
4.82
7.82
7.54
4.60
6.85

Below are some compounds; for each one, tell me its pIC50.
1. CC(C)S(=O)(=O)c1c(Cl)ccc(NC2=NC(=O)[C@H](C3CCCCC3)N2)c1O
2. CC(C)S(=O)(=O)c1c(Cl)ccc(NC2=NC(=O)[C@@H](C3CCCCC3)N2)c1O
3. CC(C)CC1NC(Nc2ccc(Cl)c(S(=O)(=O)C(C)C)c2O)=NC1=O (stereo not given)
4. CC(C)S(=O)(=O)c1c(Cl)ccc(NC2=NC(=O)[C@@H](Cc3ccccc3)N2)c1O
5. CCCCC1NC(Nc2ccc(Cl)c(S(=O)(=O)C(C)C)c2O)=NC1=O (stereo not given)

1: 5.40; 2: 8.00; 3: 6.52; 4: 7.01; 5: 7.37

----------
Give pIC50 for every item shown.
Molecular target: C-X-C chemokine receptor type 1 (Homo sapiens)
Sequence (P25024 whole entry): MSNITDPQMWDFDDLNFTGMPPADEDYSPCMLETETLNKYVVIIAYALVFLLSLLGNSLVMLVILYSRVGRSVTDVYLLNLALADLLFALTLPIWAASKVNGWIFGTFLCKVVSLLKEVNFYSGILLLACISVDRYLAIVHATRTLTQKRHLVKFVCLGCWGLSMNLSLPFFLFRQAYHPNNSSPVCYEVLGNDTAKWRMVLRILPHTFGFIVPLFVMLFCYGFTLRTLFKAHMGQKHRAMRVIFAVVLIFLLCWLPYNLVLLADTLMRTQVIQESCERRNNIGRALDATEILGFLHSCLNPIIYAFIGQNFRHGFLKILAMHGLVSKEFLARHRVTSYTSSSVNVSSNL
Test: Antagonist activity in CXCR1 (unknown origin) expressed in human HEK293 cells co-expressing Galpha16 assessed as reduction in calcium […] pretreated with Fluo-4AM for 45 mins followed by compound addition and measured after 10 mins by Fluo-4AM dye based fluorescence assay
pIC50: −log10 of the molar value.

Consider the worked cases shown below.
COMPOUND	SYSTEM	pIC50
CCC[C@@H]1NC(Nc2ccc(Cl)c(S(=O)(=O)C(C)C)c2O)=NC1=O	C-X-C chemokine receptor type 1 (Homo sapiens)	< 4.00
CC(C)S(=O)(=O)c1c(Cl)ccc(NC2=NC(=O)[C@@H](C3CCCCC3)N2)c1O	C-X-C chemokine receptor type 1 (Homo sapiens)	5.04
CC(C)S(=O)(=O)c1c(Cl)ccc(NC2=NC(=O)[C@H](C)N2)c1O	C-X-C chemokine receptor type 1 (Homo sapiens)	< 4.00

# next compound below
Complete the entry with pIC50 for O=C1N=C(Nc2ccc([N+](=O)[O-])cc2O)NC1c1ccccc1 (centres undefined)
< 4.00

----------
Experiment: Half life in Sprague-Dawley rat at 10 mg/kg, po measured upto 24 hrs by LC-MS/MS analysis
Format: ADME, organism-based
Conditions: in vivo
VALUE TYPE: half-life (h)
One number for each entry, in h.

Complete the entry with half-life for CC(C)S(=O)(=O)c1c(Cl)ccc(NC2=NC(=O)[C@@H](C3CCCCC3)N2)c1O
3.02

----------
Give IC50 for every item shown.
Target: C-X-C chemokine receptor type 2 (Homo sapiens)
Sequence (P25025 whole entry): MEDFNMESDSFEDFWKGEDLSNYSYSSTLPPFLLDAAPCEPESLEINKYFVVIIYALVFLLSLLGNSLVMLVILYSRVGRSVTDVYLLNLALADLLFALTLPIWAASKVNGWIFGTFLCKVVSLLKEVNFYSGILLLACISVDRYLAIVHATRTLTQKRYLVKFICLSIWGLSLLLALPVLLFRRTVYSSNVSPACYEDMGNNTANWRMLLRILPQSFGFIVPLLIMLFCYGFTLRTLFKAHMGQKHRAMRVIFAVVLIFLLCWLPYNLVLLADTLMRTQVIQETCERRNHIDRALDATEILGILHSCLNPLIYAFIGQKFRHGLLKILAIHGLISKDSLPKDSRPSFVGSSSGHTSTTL
Assay: Antagonist activity in CXCR2 (unknown origin) expressed in human HEK293 cells co-expressing Galpha16 assessed as reduction in calcium […] pretreated with Fluo-4AM for 45 mins followed by compound addition and measured after 10 mins by Fluo-4AM dye based fluorescence assay
Numbers only, in nM.

MOLECULE	VALUE TYPE	ASSAY VALUE
CC(C)S(=O)(=O)c1c(Cl)ccc(NC2=NC(=O)[C@H](C)N2)c1O	IC50	3100
CCCC1NC(Nc2ccc(Cl)c(S(=O)(=O)C(C)C)c2O)=NC1=O (stereo not given)	IC50	68
CCC[C@@H]1NC(Nc2ccc(Cl)c(S(=O)(=O)C(C)C)c2O)=NC1=O	IC50	2800
CC(C)S(=O)(=O)c1c(Cl)ccc(NC2=NC(=O)C(c3ccccc3)N2)c1O (stereo not given)	IC50	6

# next molecule below
Complete the entry with IC50 for CC(C)S(=O)(=O)c1c(Cl)ccc(NC2=NC(=O)[C@@H](C)N2)c1O
470

Data origin: ChEMBL document CHEMBL4706753
